Biological target: human GlyT1c transporter (Homo sapiens (Human))
Test: Radioligand binding assay using recombinant CHO cell membranes expressing human GlyT1
Conditions: human GlyT1c-expressing CHO cell membranes; succinate; read-out: radioligand binding Kiapp
PROPERTY_NAME: Ki

Look at this compound and give its reported Ki. O=S(=O)(CC1CC1)NCCOc1ccc2c(c1)C(Cc1ccccc1)C(N1CCC1)CC2 (single isomer, unassigned; (+)) [Example 144, succinate]
≤ 1000 nM

====

Target: human GlyT1c transporter (Homo sapiens (Human))
Assay: Radioligand binding assay using recombinant CHO cell membranes expressing human GlyT1
Conditions: human GlyT1c-expressing CHO cell membranes; read-out: radioligand binding Kiapp
Counter-ions that a name gives are not always drawn.
PROPERTY_NAME: Ki

> print(dat)
                                   compound  measured.result
1  Cn1cnc(S(=O)(=O)NCc2ccc3c(c2)C(Cc2ccccc2)C(N2CCCC2)CC3)c1 (stereo not drawn)         ≤ 0.1 µM
2  CCOC(=O)NC1CCc2ccc(OCCNS(=O)(=O)CC)cc2C1Cc1cccc(Cl)c1 (stereo not drawn)          ≥ 10 µM
3  CC(C)(C)OC(=O)NC1CCc2ccc(CN)cc2C1Cc1ccc(Cl)c(Cl)c1 (stereo not drawn)         ≤ 100 µM
4  CCCS(=O)(=O)N(CCOc1ccc2c(c1)C(Cc1ccccc1)C(N)CC2)C1CC1 (stereo not drawn) [Example 282, hydrochloride]         ≤ 0.1 µM
5  Cn1cc(S(=O)(=O)NCCOc2ccc3c(c2)C(Cc2cccc(Cl)c2)C(N)CC3)cn1 (stereo not drawn) [Example 47, hydrochloride]        ≤ 0.01 µM
6  Cn1ccc(S(=O)(=O)NCc2ccc3c(c2)C(Cc2ccccc2)C(N)CC3)c1 (stereo not drawn) [Example 180, hydrochloride]        ≤ 0.01 µM

Look at this compound and give its reported Ki. NC1CCc2ccc(OCCNS(=O)(=O)C3CC3)cc2C1Cc1ccccc1Cl (stereo not drawn) [Example 294, hydrochloride]
≤ 10 µM

Look at this compound and give its reported Ki. Cn1cc(S(=O)(=O)NCc2ccc3c(c2)C(Cc2ccccc2)C(N2CCOCC2)CC3)cn1 (stereo not drawn)
≤ 0.1 µM

Look at this compound and give its reported Ki. CCOC(=O)NC1CCc2ccc(OCCN(C)S(=O)(=O)CC3CC3)cc2C1Cc1cccc(Cl)c1 (stereo not drawn)
≤ 10 µM

====

Target: human GlyT1c transporter (Homo sapiens (Human))
Assay: Radioligand binding assay using recombinant CHO cell membranes expressing human GlyT1
Details: human GlyT1c-expressing CHO cell membranes; read-out: radioligand binding Kiapp
Where a name gives a salt, the structure may show the parent alone.
PROPERTY_NAME: Ki

> print(dat)
                                   molecule  property.name  measured.result
1  O=S(=O)(CC1CC1)NCCCc1ccc2c(c1)C(Cc1ccccc1)C(N1CCCC1)CC2 (stereo not drawn) [Example 266, hydrochloride]             Ki        ≤ 1000 nM
2  NC1CCc2ccc(OCCNS(=O)(=O)c3cccs3)cc2C1Cc1cccc(Cl)c1 (stereo not drawn) [Example 56]             Ki         ≤ 100 nM
3  CCCS(=O)(=O)NCCCc1ccc2c(c1)C(Cc1ccccc1)C(NCC)CC2 (stereo not drawn) [Example 223, hydrochloride]             Ki         ≤ 100 nM

Look at this molecule and give its reported Ki. O=S(=O)(CC1CC1)NCCOc1ccc2c(c1)C(Cc1ccc(Cl)c(Cl)c1)C(N1CCC1)CC2 (stereo not drawn) [Example 135]
≤ 100 nM

Look at this molecule and give its reported Ki. CCNC1CCc2ccc(OCCNS(=O)(=O)CC3CC3)cc2C1Cc1cccc(Cl)c1 (stereo not drawn) [Example 307, hydrochloride]
≤ 10 nM

Look at this molecule and give its reported Ki. O=S(=O)(CC1CC1)NCCOc1ccc2c(c1)C(Cc1cccc(Cl)c1)C(N1CCCC1)CC2 (stereo not drawn) [Example 317, hydrochloride]
≤ 100 nM

Look at this molecule and give its reported Ki. Cn1cnc(S(=O)(=O)NCCOc2ccc3c(c2)C(Cc2cccc(F)c2)C(N2CCC2)CC3)c1 (stereo not drawn) [Example 141, hydrochloride]
≤ 10 nM

Look at this molecule and give its reported Ki. Cn1ccc(S(=O)(=O)NCCOc2ccc3c(c2)C(Cc2cc(F)cc(F)c2)C(NC=O)CC3)c1 (stereo not drawn) [Example 271]
≤ 100 nM

Look at this molecule and give its reported Ki. Cc1nc(S(=O)(=O)NCCOc2ccc3c(c2)C(Cc2cccc(Cl)c2)C(N)CC3)cn1C (stereo not drawn) [Example 316, hydrochloride]
≤ 1000 nM

Look at this molecule and give its reported Ki. O=S(=O)(NCCOc1ccc2c(c1)C(Cc1ccccc1)C(N1CCC1)CC2)C1CCC1 (stereo not drawn) [Example 147]
≤ 100 nM

Look at this molecule and give its reported Ki. N#Cc1ccc2c(c1)C(Cc1ccc(Cl)cc1)C(N)CC2 (stereo not drawn) [Example 30, hydrochloride]
≤ 100000 nM

Look at this molecule and give its reported Ki. CCOC(=O)NC1CCc2ccc(OCC3CN(S(=O)(=O)CC4CC4)C3)cc2C1Cc1cccc(Cl)c1 (stereo not drawn) [Example 289]
> 10000 nM

====

Target: human GlyT1c transporter (Homo sapiens (Human), UniProt P48067)
Sequence (P48067 whole entry): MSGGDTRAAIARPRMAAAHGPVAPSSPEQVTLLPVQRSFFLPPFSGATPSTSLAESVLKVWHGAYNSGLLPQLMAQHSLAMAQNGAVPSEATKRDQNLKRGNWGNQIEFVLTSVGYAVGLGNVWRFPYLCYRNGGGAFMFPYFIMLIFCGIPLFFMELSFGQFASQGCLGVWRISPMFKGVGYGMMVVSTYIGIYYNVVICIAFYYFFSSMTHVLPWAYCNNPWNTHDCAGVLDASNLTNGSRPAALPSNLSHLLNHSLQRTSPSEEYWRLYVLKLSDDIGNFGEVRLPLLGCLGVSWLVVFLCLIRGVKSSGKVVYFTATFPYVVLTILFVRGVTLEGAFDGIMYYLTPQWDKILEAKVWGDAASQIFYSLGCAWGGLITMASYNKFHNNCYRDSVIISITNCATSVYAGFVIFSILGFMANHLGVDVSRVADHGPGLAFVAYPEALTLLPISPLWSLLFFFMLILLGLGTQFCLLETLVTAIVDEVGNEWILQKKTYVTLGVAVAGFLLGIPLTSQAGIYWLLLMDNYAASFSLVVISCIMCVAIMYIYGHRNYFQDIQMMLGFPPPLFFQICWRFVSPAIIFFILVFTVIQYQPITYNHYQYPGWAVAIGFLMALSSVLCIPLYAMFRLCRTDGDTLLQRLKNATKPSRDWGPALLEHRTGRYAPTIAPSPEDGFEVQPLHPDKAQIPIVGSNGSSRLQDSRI
Assay: Radioligand binding assay using recombinant CHO cell membranes expressing human GlyT1
Conditions: human GlyT1c-expressing CHO cell membranes; read-out: radioligand binding Kiapp
Counter-ions that a name gives are not always drawn.
The entries below come with measured Ki values attached.

Check out these entries, answers already filled in.
MOLECULE	Ki
CC(C)(C)OC(=O)NC1CCc2ccc(C#N)cc2C1Cc1ccc(Cl)c(Cl)c1 (centres unmarked)	≤ 10000 nM
CC(=O)NC1CCc2ccc(OCCNS(=O)(=O)CC3CC3)cc2C1Cc1cccc(Cl)c1 (centres unmarked)	≤ 100 nM
Cn1cc(S(=O)(=O)NCCOc2ccc3c(c2)C(Cc2ccccc2Cl)C(N)CC3)cn1 (centres unmarked) [Example 301, hydrochloride]	≤ 10 nM
Cn1cnc(S(=O)(=O)NCCOc2ccc3c(c2)C(Cc2ccccc2)C(N)CC3)c1 (single isomer, unassigned; enantiomer 1) [Example 238, hydrochloride]	≤ 10 nM
CNC1CCc2ccc(OCCNS(=O)(=O)c3cn(C)cn3)cc2C1Cc1ccccc1Cl (centres unmarked) [Example 303, hydrochloride]	≤ 100 nM

Look at this molecule and give its reported Ki. CN(CCOc1ccc2c(c1)C(Cc1ccccc1)C(N1CCCC1)CC2)S(=O)(=O)CC1CC1 (centres unmarked) [Example 127, hydrochloride]
≤ 100 nM

Look at this molecule and give its reported Ki. CCCS(=O)(=O)NCC#Cc1ccc2c(c1)C(Cc1ccccc1)C(NC(C)=O)CC2 (centres unmarked)
≤ 10000 nM

====

Biological target: human GlyT1c transporter (Homo sapiens (Human))
Test: Radioligand binding assay using recombinant CHO cell membranes expressing human GlyT1
Details: human GlyT1c-expressing CHO cell membranes; read-out: radioligand binding Kiapp
Counter-ions that a name gives are not always drawn.
The entries below come with measured Ki values attached.

Check out these entries, answers already filled in.
> print(dat)
                                   compound  property.name  measured.result
1  CN(CCOc1ccc2c(c1)C(Cc1ccccc1)C(N)CC2)S(=O)(=O)CC1CC1 (centres unmarked) [Example 130, hydrochloride]             Ki          ≤ 10 nM
2  CNC1CCc2ccc(OCCNS(=O)(=O)c3ccn(C)c3)cc2C1Cc1cc(F)cc(F)c1 (centres unmarked) [Example 246, hydrochloride]             Ki          ≤ 10 nM

Record Cn1cc(S(=O)(=O)NCCOc2ccc3c(c2)C(Cc2ccccc2)C(N2CCC2)CC3)cn1 (centres unmarked) [Example 324, hydrochloride] : what is its Ki with human GlyT1c transporter (Homo sapiens (Human))?
≤ 10 nM

Record CCCS(=O)(=O)N1CC(COc2ccc3c(c2)C(Cc2cccc(Cl)c2)C(NC(=O)OCC)CC3)C1 (centres unmarked) : what is its Ki with human GlyT1c transporter (Homo sapiens (Human))?
≤ 10000 nM

Record CNC1CCc2ccc(OCCNS(=O)(=O)CC3CC3)cc2C1Cc1ccccc1 (centres unmarked) [Example 137, hydrochloride] : what is its Ki with human GlyT1c transporter (Homo sapiens (Human))?
≤ 10 nM

Record O=S(=O)(NCCOc1ccc2c(c1)C(Cc1ccc(Cl)c(Cl)c1)C(N1CCCC1)CC2)C1CCC1 (centres unmarked) [Example 88, hydrochloride] : what is its Ki with human GlyT1c transporter (Homo sapiens (Human))?
≤ 100 nM

Record Cn1cc(S(=O)(=O)NCc2ccc3c(c2)C(Cc2ccccc2)C(N)CC3)cn1 (centres unmarked) [Example 172, hydrochloride] : what is its Ki with human GlyT1c transporter (Homo sapiens (Human))?
≤ 10 nM

====

Target: human GlyT1c transporter (Homo sapiens (Human), UniProt P48067)
Experiment: Radioligand binding assay using recombinant CHO cell membranes expressing human GlyT1
Conditions: human GlyT1c-expressing CHO cell membranes; read-out: radioligand binding Kiapp
From the text: 2. Radioligand binding assays using recombinant CHO cell membranes expressing human GlyT1: […]
Counter-ions that a name gives are not always drawn.
The entries below come with measured Ki values attached.

Check out these entries, answers already filled in.
> print(dat)
                                   compound  measured.result
1  NC1CCc2ccc(OCCN3CCCS3(=O)=O)cc2C1Cc1cccc(Cl)c1 (stereo not shown) [Example 33, hydrochloride]        ≤ 1000 nM
2  Cn1cc(S(=O)(=O)NCCOc2ccc3c(c2)C(Cc2cccc(Cl)c2)C(N2CCCC2)CC3)cn1 (stereo not shown) [Example 318, hydrochloride]          ≤ 10 nM
3  Cn1cc(S(=O)(=O)NCc2ccc3c(c2)C(Cc2ccccc2)C(N2CCC2)CC3)cn1 (stereo not shown) [Example 250]          ≤ 10 nM
4  Cn1cc(S(=O)(=O)NCc2ccc3c(c2)C(Cc2ccccc2)C(N2CCC2)CC3)cn1 (single isomer, unassigned; enantiomer 1) [Example 254]          ≤ 10 nM
5  CN(CCOc1ccc2c(c1)C(Cc1ccc(Cl)c(Cl)c1)C(N1CCCC1)CC2)S(=O)(=O)CC1CC1 (stereo not shown) [Example 126, hydrochloride]          ≤ 10 nM
6  CN(CCOc1ccc2c(c1)C(Cc1ccccc1)C(N1CCCC1)CC2)S(=O)(=O)c1cnn(C)c1 (stereo not shown) [Example 111, hydrochloride]         ≤ 100 nM

Record CCOC(=O)NC1CCc2ccc(OCCNS(=O)(=O)c3cnn(C)c3)cc2C1Cc1ccc(Cl)c(Cl)c1 (stereo not shown) [Example 9] : what is its Ki with human GlyT1c transporter (Homo sapiens (Human), UniProt P48067)?
≤ 1000 nM
